B1: Ankyrin repeat and SOCS box protein 14, residues 532 to 572; numbered along this chain, A6NK59 (parent)
chain: RSLKHLCRLKIRKCMGRLHLRCPVFMSFLPLPNRLKAYVLY

variants of: B1; assay: abundance fitness (aPCA) (normalised: wild type 0, dead -1); higher = more abundant; growth selection in yeast, the domain comes from the species named; details: Homo sapiens
Note to self: class labels come from recorded abundance fitness, ranges listed here: interval 1: < -0.2; interval 2: ≥ -0.2 and < 0.05; interval 3: ≥ 0.05

# input Which class holds M26G ?
# output interval 3

# input Here is the next variant: L9Q
# output interval 3

# input C22S , same question.
# output interval 1

# input Same again, this time with S2M
# output interval 3

# input Likewise for P32R ?
# output interval 1

# input Now give it for L6E too.
# output interval 3

# input Item: S27Q
# output interval 2

# input Would you kindly repeat that for M15V ?
# output interval 2

# input Now try C14D .
# output interval 2

# input Now this one: L40A
# output interval 2

# input # iterate: R21E
# output interval 1

# input Entry to check: L31Y
# output interval 1

# input Another variant: F25M
# output interval 2

# input Continue with R17D
# output interval 2

# input Also K13R ?
# output interval 2

# input Same question for M15P please.
# output interval 1

# input Please give the result for V39A too.
# output interval 1

# input Please do the same for H19L as well.
# output interval 3

# input And what about the variant P23L ?
# output interval 3

# input # repeat for C14M
# output interval 3

# input Also A37W , if possible.
# output interval 1

# input And L18R ?
# output interval 1

# input Also P23G , if possible.
# output interval 3

# input // query: M15E
# output interval 1

# input K4M ?
# output interval 2
